TARGET OR TEST SYSTEM: D(2) dopamine receptor (Homo sapiens)
MEASUREMENT DESCRIPTION: HTS Assay for Allosteric Agonists of the Human D2 Dopamine Receptor: Primary Screen for Agonists; note: 0% is about no effect
CONDITION LABEL: HEK293 T-REx D2 cells, calcium flux agonist mode; at 2 µM; active compounds read high
The campaign covered roughly 340,000 compounds. About 1,800 (0.53%) were called active. This is one part of a sample in which actives are shown more often than they occur.
OBSERVED PROPERTY: activation (%)
Response body: numeric value in %, unit text excluded.

Fill in reported activation for this entry: O=C(c1cccs1)N1CCN(Cc2ccc3c(c2)OCO3)CC1
84.2

Please report the measured activation for Cc1cc(C)n2nc(C(=O)Oc3ccc4c(c3)OCO4)nc2n1
-0.808

Report activation for Cn1c2ccccc2c2c(C(=O)N3CCN(c4ccc(F)cc4)CC3)cn(C3CCCC3)c(=O)c21
0.715

Input COc1ccc(CCNC(=O)c2cc(=O)c3c(C)cc(C)cc3o2)cc1OC , output reported activation.
-0.676

Give activation for CCn1cc(C(=O)NCc2ccc3c(c2)OCO3)c2cc(OC)c(OC)cc2c1=O
-0.995

Identify measured activation corresponding to COc1ccc(-c2cc(C(=O)N3CCN(Cc4ccc5c(c4)OCO5)CC3)on2)cc1OC
-0.524

Return the recorded activation value; entry: O=c1cc(CCl)nc2scc(-c3ccccc3)n12
39.4

Please indicate activation recorded for CCCCC(=O)NNC(=S)NC(=O)C(c1ccccc1)c1ccccc1
52.5

Output measured activation for this item: CCOC(=O)c1nnn2c3ccccc3c(=O)n(C)c12
0.451

Answer with the recorded activation of COc1ccc(-c2nc3scc(CCNS(=O)(=O)c4cc(F)ccc4OC)n3n2)cc1OC only.
-1.74

Read off the recorded activation for CC1=Nc2cc(C(=O)NCc3ccc(C)cc3)ccc2Sc2ccc(Cl)cc21
0.834

Provide only the value of recorded activation for CCC(CC)NC(=O)/C=C/c1cccc([N+](=O)[O-])c1
55.2

// Input: O=C(CC(c1ccccc1)c1ccccc1)NCC(O)c1ccc([N+](=O)[O-])cc1 (stereo not drawn) . Output its activation only.
-0.594

Respond only with activation recorded for Cc1csc2nc(COC(=O)c3ccccc3NC(=O)c3ccccc3Cl)cc(=O)n12
0.344

Give recorded activation. O=C(CNS(=O)(=O)c1ccccc1)N1CCN(C(=O)c2ccco2)CC1
0.7

Kindly indicate its recorded activation. Item: O=S(=O)(c1cc(Cl)ccc1Cl)N1CCN(Cc2ccco2)CC1
-1.47

Given the molecule Cc1ccc(Cl)cc1NC(=O)CSc1nccn1C , write its reported activation.
-0.262

Fill in reported activation for this entry: COc1ccc(NC(=O)NC(C)c2c(-n3cccc3)sc(C)c2C)cc1OC (stereo not drawn)
0.829

Name the recorded activation of the molecule listed here: Nc1c(C(=O)c2cccs2)sc2nsc(SCCN3CCCCC3)c12
52.2

Retrieve activation measured for Cc1c(CCNC(=O)c2ccc(C(F)(F)F)cc2)sc2nc(-c3ccc(F)cc3)nn12 and print it.
-2.35

Look up and state reported activation for O=C(c1ccco1)N1CCN(C(=O)c2ccc(COc3ccc(F)cc3)o2)CC1
-1.15

Give reported activation value for Cc1ccccc1C(=O)N(Cc1ccc(N(C)C)cc1)CC1CCCO1 (stereo not drawn)
-0.0491

Read off the recorded activation for CCOc1cc(C2c3c(-c4ccc(Br)cc4)n[nH]c3C(=O)N2c2ccc(Cl)cc2)ccc1O (stereo not drawn)
0.413

Specify activation for Cc1ccc(NC(=O)Cn2nnc3sc4c(c3c2=O)CCC(C)C4)cc1 (stereo not drawn) and stop.
0.94

Provide activation value for the following molecule: N#Cc1ccsc1NC(=O)CN1CCN(S(=O)(=O)c2cc(Cl)ccc2Cl)CC1
3.35

# return recorded activation for input CCc1ccc2oc(-c3ccc(C)c(NC(=O)/C=C/c4ccco4)c3)nc2c1
0.62

Consider the molecule CCOc1ccc(C(=O)N2CCN(CCc3ccccn3)CC2)cc1 . State its measured activation.
0.162

Answer with the recorded activation for the molecule listed here: O=C(c1ccco1)N1CCN(CCOc2ccccc2)CC1
74.5

Name the recorded activation of the molecule listed here: CN1c2ccc(Cl)cc2-c2nc(SCC(=O)Nc3cc(F)ccc3F)ncc2S1(=O)=O
0.0638

Check the records and state activation for CCc1ccc(NC(=O)C(C)OC(=O)/C=C/c2cccc([N+](=O)[O-])c2)cc1 (stereo not drawn)
-0.67

Using known records, supply activation for CCN1CCN(CCCNC(=O)c2ccc3c(c2)sc2nc(-c4ccc(OC)cc4)cn23)CC1
1.86

Look up and report measured activation for this entry: Clc1ccc(CN2CCCCCC2)cc1Cl
0.701

Provide measured activation value, entry: CCCCCC(=O)NC(=S)NNC(=O)c1ccc([N+](=O)[O-])cc1
2.53
